The reported numbers originate from the supplement of paper PMC10567573.

B1: ETS1 (parent)
chain: FSEPSFITESYQTLHPISSEELLS

variants of: B1; assay: protein stability index of a GFP-peptide fusion (GPS, HEK-293T) (PSI 1-6); higher = more stable; details: c terminus: a fixed tail appended;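 further: lentivirally expressed fusions sorted by FACS into six bins by GFP to DsRed ratio, PSI derived from sequencing read proportions per bin multiplied by bin number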
This section presents variants with their documented protein stability index values.
property label: protein stability index

[[record]]
seq = "FSEPSFISESYQTLHPISSEELLS [T8S]"
value_observed = 2.38

[[record]]
seq = "FSFPSFITESYQTLHPISSEELLS [E3F]"
value_observed = 1.6

[[record]]
seq = "FSEPSFITESYQTLRPISSEELLS [H15R]"
value_observed = 2.82

[[record]]
seq = "FSEPSFITESYQTLHPISSEELLH [S24H]"
value_observed = 1.91

[[record]]
seq = "FSEPSFITEIYQTLHPISSEELLS [S10I]"
value_observed = 1.86

[[record]]
seq = "FSEPSFITESYQTLHPISSEELLL [S24L]"
value_observed = 1.69

